Values compiled from the supplement of paper PMC10307832.

Give relative viability for every item shown.
Test system: NCI-H520
protocol text: relative viability (nuclei count vs DMSO), 5 days (fraction); higher = more cells survive
condition label: first compound 0.8 µM
No unit in the answer, please; the number alone is enough.

// sample O=c1[nH]c2ccccc2n1C1CCN(CCCC(c2ccc(F)cc2)c2ccc(F)cc2)CC1 [Pimozide] + CC(=O)Nc1cccc(-n2c(=O)n(C3CC3)c(=O)c3c(Nc4ccc(I)cc4F)n(C)c(=O)c(C)c32)c1 [Trametinib] (partner 0.02 µM) , its relative viability was 0.627

The molecule listed as Cc1cnc(-c2cnc(NCCNc3ccc(C#N)cn3)nc2-c2ccc(Cl)cc2Cl)[nH]1 + CC(C)C[C@H](NC(=O)[C@H](Cc1ccccc1)NC(=O)c1cnccn1)B(O)O [Bortezomib] (partner 0.002 µM) has a reported relative viability of 0.473

Reported relative viability for O=c1[nH]c2ccccc2n1C1CCN(CCCC(c2ccc(F)cc2)c2ccc(F)cc2)CC1 [Pimozide] + Cc1nc(Nc2ncc(C(=O)Nc3c(C)cccc3Cl)s2)cc(N2CCN(CCO)CC2)n1 [Dasatinib] (partner 0.075 µM) was 0.185

Sure, the documented relative viability for O=c1[nH]c2ccccc2n1C1CCN(CCCC(c2ccc(F)cc2)c2ccc(F)cc2)CC1 [Pimozide] + O=C(c1cc(Cc2n[nH]c(=O)c3ccccc23)ccc1F)N1CCN(C(=O)C2CC2)CC1 [Olaparib] (partner 8 µM) is 0.266

###

Tested on: NCI-H2087
protocol text: relative viability (nuclei count vs DMSO), 5 days (fraction); higher = more cells survive
condition label: first compound 500 µM
Assign relative viability to each entry below.
Simply state the number, no unit and no words.

# relative viability of O=C(O)CCCCC(CCSCc1ccccc1)SCc1ccccc1 (stereo not drawn) [CPI-613] + CC(=O)Nc1cccc(-n2c(=O)n(C3CC3)c(=O)c3c(Nc4ccc(I)cc4F)n(C)c(=O)c(C)c32)c1 [Trametinib] (partner 0.02 µM) = 0.003

Record O=C(O)CCCCC(CCSCc1ccccc1)SCc1ccccc1 (stereo not drawn) [CPI-613] + CC1(C)CCC(c2ccc(Cl)cc2)=C(CN2CCN(c3ccc(C(=O)NS(=O)(=O)c4ccc(N[C@H](CCN5CCOCC5)CSc5ccccc5)c(S(=O)(=O)C(F)(F)F)c4)cc3)CC2)C1 [Navitoclax] (partner 0.5 µM) . Reported relative viability: 0.0127

Reported relative viability of O=C(O)CCCCC(CCSCc1ccccc1)SCc1ccccc1 (stereo not drawn) [CPI-613] + CS(=O)(=O)N1CCN(Cc2cc3nc(-c4cccc5[nH]ncc45)nc(N4CCOCC4)c3s2)CC1 [Pictilisib] (partner 1 µM) : 0.0127

Record O=C(O)CCCCC(CCSCc1ccccc1)SCc1ccccc1 (stereo not drawn) [CPI-613] + CC(C)C[C@H](NC(=O)[C@H](Cc1ccccc1)NC(=O)c1cnccn1)B(O)O [Bortezomib] (partner 0.002 µM) . Reported relative viability: 0.016

Per the record, O=C(O)CCCCC(CCSCc1ccccc1)SCc1ccccc1 (stereo not drawn) [CPI-613] + COc1cc2c(Oc3ccc(NC(=O)C4(C(=O)Nc5ccc(F)cc5)CC4)cc3F)ccnc2cc1OCCCN1CCOCC1 [Foretinib] (partner 0.25 µM) has relative viability of 0.0183

compound O=C(O)CCCCC(CCSCc1ccccc1)SCc1ccccc1 (stereo not drawn) [CPI-613] + CC(=O)c1c(C)c2cnc(Nc3ccc(N4CCNCC4)cn3)nc2n(C2CCCC2)c1=O [Palbociclib] (partner 0.5 µM) , relative viability observed: 0.0098

Quick note, relative viability for O=C(O)CCCCC(CCSCc1ccccc1)SCc1ccccc1 (stereo not drawn) [CPI-613] + COc1cccc2cc(-c3nc([C@H]4CC[C@H](C(=O)O)CC4)n4ncnc(N)c34)[nH]c12 [OSI-027] (partner 0.5 µM) landed at 0.0169

compound O=C(O)CCCCC(CCSCc1ccccc1)SCc1ccccc1 (stereo not drawn) [CPI-613] + CS(=O)(=O)CCNCc1ccc(-c2ccc3ncnc(Nc4ccc(OCc5cccc(F)c5)c(Cl)c4)c3c2)o1 [Lapatinib] (partner 2 µM) , relative viability observed: 0.012
